- Tested on: MDA-MB-231 breast
- TEST_DETAILS: NCI-60 one-dose screen, 48 h (100 = growth as untreated, 0 = no growth, -100 = all killed)
- MEASUREMENT_PARAMETERS: 10 µM unless noted
This is part of a sample that, as a whole, favours compounds with a hit. Of some 83,000 tested, about 20% had one in any assay.
Label scheme for growth: lower than 30% is -1, 30% and above is 1.

CC/C(=C(/c1ccc(Cl)cc1)c1ccc(OCCN2CCCC2)cc1)c1ccccc1 : 1
N#CC1=C(N)Oc2c(ccc3ccccc23)C1c1cc2ccccc2n2nnnc12 (stereo unspecified) : 1
O=C(Nc1ncc(Cc2ccc(Cl)cc2)s1)c1ccc2c(c1)OCCO2 : -1

hey, is growth for this one >= 30%? CCN(CC)CCCC(Nc1c2ccc(Cl)cc2nc2ccc(OC)cc12)c1ccncc1 (stereo unspecified)
1

What about this compound? COc1cc(/C=C2\CN(S(=O)(=O)c3ccc(C)cc3)C/C(=C\c3cc(CN4CCCC4)c(O)c(OC)c3)C2=O)cc(CN2CCCC2)c1O
-1

Field entry: COc1cc2ncnc(Nc3ccc(S(=O)(=O)Nc4cc(C)on4)cc3)c2cc1OCCCN1CCOCC1
1

Origin of the recorded values: PubChem BioAssay (NCI)
